Hey, just so you know, these numbers are from ChEMBL document CHEMBL5316337.

# System: Klebsiella pneumoniae
# test_method_notes: Antibacterial activity against Carbapenem-resistant Klebsiella pneumoniae FADD1-KP032 clinical isolates assessed as reduction in bacterial growth by broth microdilution method
# Type: functional
quantity_kind: MIC (µg/mL)
API: value field is a number in µg/mL; no unit string.

input_smiles: CC[C@H](C)CCCCC(=O)N[C@@H](CCN)C(=O)N[C@H](C(=O)N[C@@H](CCN)C(=O)N[C@H]1CCNC(=O)[C@H](CCO)NC(=O)[C@H](CCN)NC(=O)[C@H](CCN)NC(=O)[C@H](CC(C)C)NC(=O)[C@@H](Cc2ccccc2)NC(=O)[C@H](CCN)NC1=O)[C@@H](C)O
MIC (µg/mL): 2

Next:
Task item: Look up and report measured MIC for this entry: CCC[C@@H]1NC(=O)[C@H](CCN)NC(=O)[C@H](CCN)NC(=O)[C@H](CC(C)C)NC(=O)[C@@H](Cc2ccccc2)NC(=O)[C@H](CCN)NC(=O)[C@@H](NC(=O)[C@H](CCN)NC(=O)[C@@H](NC(=O)[C@H](CCN)NC(=O)CCCC[C@@H](C)CC)[C@@H](C)O)CCNC1=O
Reply: 1
